test system: Staphylococcus aureus; experiment: In vitro antibacterial activity against Staphylococcus aureus Smith; format: functional

smi	unitsLabel	MIC
CN(C)CC[n+]1ccc(SCC2=C(C(=O)[O-])N3C(=O)[C@@H]([N-]C(=O)/C(=N\OCCSc4nnc(-c5cc(O)c(O)cn5)o4)c4csc(N)n4)[C@H]3SC2)cc1.[Na+]	µg/mL	6.25
NC(=O)c1cc[n+](CC2=C(C(=O)[O-])N3C(=O)[C@@H]([N-]C(=O)/C(=N\OCCSc4nnc(-c5cc(O)c(O)cn5)o4)c4csc(N)n4)[C@H]3SC2)cc1.[Na+]	µg/mL	6.25
CC(C)(O/N=C(\C(=O)N[C@@H]1C(=O)N2C(C(=O)[O-])=C(C[n+]3ccccc3)CS[C@H]12)c1csc(N)n1)C(=O)O	µg/mL	3.13

====

Below, each entry is listed alongside its reported MIC.
system: Staphylococcus aureus; assay: In vitro antibacterial activity against Staphylococcus aureus Smith; format: functional

smi	unitsLabel	MIC
Nc1nc(/C(=N/OCCSc2nnc(-c3cc(O)c(O)cn3)o2)C(=O)[N-][C@@H]2C(=O)N3C(C(=O)[O-])=C(C[n+]4ccccc4)CS[C@H]23)cs1.[Na+]	µg/mL	3.13
Nc1nc(/C(=N/OCCSc2nnc(-c3cc(O)c(O)cn3)o2)C(=O)N[C@@H]2C(=O)N3C(C(=O)[O-])=C(CSc4nc5ccccc5s4)CS[C@H]23)cs1.[Na+]	µg/mL	3.13
Nc1nc(/C(=N/OCCSc2nnc(-c3ccccn3)o2)C(=O)[N-][C@@H]2C(=O)N3C(C(=O)[O-])=C(CSc4cc[n+](CCO)cc4)CS[C@H]23)cs1.[Na+]	µg/mL	0.39
Nc1nc(/C(=N/OCCSc2nnc(-c3cc(O)c(O)cn3)o2)C(=O)N[C@@H]2C(=O)N3C(C(=O)[O-])=C(CSc4ccccn4)CS[C@H]23)cs1.[Na+]	µg/mL	6.25
Cc1cc(SCC2=C(C(=O)[O-])N3C(=O)[C@@H](NC(=O)/C(=N\OCCSc4nnc(-c5cc(O)c(O)cn5)o4)c4csc(N)n4)[C@H]3SC2)n2nc(CO)nc2n1.[Na+]	µg/mL	6.25

====

system: Staphylococcus aureus; test: In vitro antibacterial activity against Staphylococcus aureus Smith; type: functional
Reported MIC is given for each of the following compounds.

smi	MIC / µg/mL
CO/N=C(\C(=O)N[C@@H]1C(=O)N2C(C(=O)O)=C(COC(C)=O)CS[C@H]12)c1csc(N)n1	1.56
Nc1nc(/C(=N/OCc2cc(O)c(O)cn2)C(=O)[N-][C@@H]2C(=O)N3C(C(=O)[O-])=C(CSc4cc[n+](CCO)cc4)CS[C@H]23)cs1.[Na+]	3.13
Nc1nc(/C(=N/OCCSc2nnc(-c3cc(O)c(O)cn3)o2)C(=O)N[C@@H]2C(=O)N3C(C(=O)[O-])=C(CSc4nnc(N)s4)CS[C@H]23)cs1.[Na+]	6.25
Nc1nc(/C(=N/OCCSc2nnc(-c3ccc(O)c(O)c3)o2)C(=O)[N-][C@@H]2C(=O)N3C(C(=O)[O-])=C(CSc4cc[n+](CCO)cc4)CS[C@H]23)cs1.[Na+]	0.39
CC[n+]1ccc(SCC2=C(C(=O)[O-])N3C(=O)[C@@H]([N-]C(=O)/C(=N\OCCSc4nnc(-c5cc(O)c(O)cn5)o4)c4csc(N)n4)[C@H]3SC2)cc1.[Na+]	3.13
Nc1nc(/C(=N/OCCSc2nnc(-c3cc(O)c(O)cn3)o2)C(=O)[N-][C@@H]2C(=O)N3C(C(=O)[O-])=C(CSc4cc[n+](CCO)cc4)CS[C@H]23)cs1.[Na+]	3.13
Nc1nc(/C(=N/OCCSc2nnc(-c3cc(O)c(O)cn3)o2)C(=O)N[C@@H]2C(=O)N3C(C(=O)[O-])=C(C[n+]4ccc(C(=O)[O-])cc4)CS[C@H]23)cs1.[Na+]	25
Nc1nc(/C(=N/OCCSc2nnc(-c3cc(O)c(O)cn3)o2)C(=O)N[C@@H]2C(=O)N3C(C(=O)[O-])=C(CSc4cc[n+](CC(=O)[O-])cc4)CS[C@H]23)cs1.[Na+]	12.5
Nc1nc(/C(=N/OCCSc2nnc(-c3cc(O)c(O)cn3)o2)C(=O)N[C@@H]2C(=O)N3C(C(=O)[O-])=C(CSc4nnc(-c5ccncc5)o4)CS[C@H]23)cs1.[Na+]	6.25
Nc1nc(/C(=N/OCCSc2nnc(-c3cc(O)c(O)cn3)o2)C(=O)N[C@@H]2C(=O)N3C(C(=O)[O-])=C(CSc4cnns4)CS[C@H]23)cs1.[Na+]	3.13
Nc1nc(/C(=N/OCCSc2nnc(-c3cc(O)c(O)cn3)o2)C(=O)[N-][C@@H]2C(=O)N3C(C(=O)[O-])=C(C[n+]4ccc(SCCO)cc4)CS[C@H]23)cs1.[Na+]	3.13

Values compiled from ChEMBL document CHEMBL1153672.
